The reported numbers originate from ChEMBL document CHEMBL5058577.

System: HEK-293T
Test: Multiplex assay against HEK293T
Type: toxicity, cell-based
Conditions: human, 48 h, 10 µM, compound concentration 10 uM, replicate 1
Sorting guide: entries reporting Population Pyknosed Nuclei (%) beneath 9% go in the TRUE pile, the rest go in the FALSE pile.

Lookup: Is the reported Population Pyknosed Nuclei (%) for Cc1c(CC(=O)O)c2cccnc2n1Cc1ccc(S(C)(=O)=O)cc1C(F)(F)F strictly below 9%?
Found: TRUE

Lookup: For this compound, is Population Pyknosed Nuclei (%) lower than 9%? N#Cc1c(Oc2cccc(OS(=O)(=O)CCCC(F)(F)F)c2)cccc1C(F)(F)F
Found: FALSE

Lookup: is_below(Population Pyknosed Nuclei (%), 9%) for COc1ccccc1N1CCN(C[C@@H](C(=O)NC(C)(C)C)c2ccccc2)CC1.Cl.Cl ?
Found: FALSE

Lookup: Does the reported Population Pyknosed Nuclei (%) of COC[C@@H](c1ccc(C(F)(F)F)cc1)N1CCN(C2(C)CCN(C(=O)c3c(C)ncnc3C)CC2)C[C@@H]1C.O=C(O)/C=C\C(=O)O [VICRIVIROC MALEATE] stay below 9%?
Found: FALSE

Lookup: # TODO verify Population Pyknosed Nuclei (%) < 9% strictly for this compound: COc1cccc2c1c(NS(=O)(=O)c1ccc(Cl)s1)nn2Cc1cccc(CNC(=O)C(C)(C)O)c1
Found: FALSE

Lookup: Find out if reported Population Pyknosed Nuclei (%) for Cl.NCCc1ccc(O)c(O)c1 [DOPAMINE HYDROCHLORIDE] is less than 9%
Found: TRUE

Lookup: State whether 9% exceeds Population Pyknosed Nuclei (%) recorded for Br.CS(=O)(=O)Nc1c(O)ccc2c1CCCC2C1=NCCN1 (stereo unspecified) .
Found: TRUE

Lookup: Threshold test, Population Pyknosed Nuclei (%) < 9%: CCCCCC(O)/C=C/[C@H]1C(=O)CC(O)C1C/C=C\CCCC(=O)O (stereo partly specified)
Found: TRUE

Lookup: API: query returns whether the compound falls strictly under 9% in Population Pyknosed Nuclei (%). Query: Cc1onc(-c2ccccc2Cl)c1C(=O)N(C)c1ccc(Cl)cc1
Found: TRUE

Lookup: Record CC(=O)Nc1cccc2c1c(Sc1ccc(Cl)cc1)c(C)n2CC(=O)O : is its Population Pyknosed Nuclei (%) strictly below 9%?
Found: TRUE

Lookup: State whether 9% exceeds Population Pyknosed Nuclei (%) recorded for O=C1[C@H](Cc2ccc(O)cc2)N2C(=O)CCN(C(=O)NCc3ccccc3)[C@H]2CN1Cc1cccc2ccccc12 .
Found: FALSE

Lookup: Determine whether this compound shows Population Pyknosed Nuclei (%) lower than 9% (ties excluded): Cc1sc2c(c1C)C(c1ccc(Cl)cc1)=N[C@@H](CC(=O)NCCCCCCCCNC(=O)COc1cccc3c1C(=O)N(C1CCC(=O)NC1=O)C3=O)c1nnc(C)n1-2 (stereo partly specified)
Found: FALSE

Lookup: Is the reported Population Pyknosed Nuclei (%) for CCc1cc2cc(NS(=O)(=O)c3ccc(C#N)cc3)ccc2n(CC)c1=O strictly below 9%?
Found: TRUE

----------
Test system: U2OS
Test: Multiplex assay against U2OS
Format: toxicity, cell-based
Settings: human, 24 h, 1 µM, compound concentration 1 uM, replicate 2
Provide the recorded Population Pyknosed Nuclei (%) for the entries that follow.
Quick reminder: number only, in %, skip the unit.

Lookup: Specify reported Population Pyknosed Nuclei (%) for the compound shown: Cc1cnc(-c2cc(N3CCN(C(=O)CCS(C)(=O)=O)CC3)ncc2Cl)c(C)c1
Found: 7

Lookup: Complete the entry with Population Pyknosed Nuclei (%) for CCCOc1ccc2[nH]cc(C3=CCNCC3)c2n1.Cl
Found: 8

Lookup: Supply recorded Population Pyknosed Nuclei (%) for Cl.N=C(N)NC(=O)Cc1c(Cl)cccc1Cl [GUANFACINE HYDROCHLORIDE] here.
Found: 7

Lookup: Please look at this compound and report its Population Pyknosed Nuclei (%): Cc1noc(-c2ccc(-c3ccc(CC(=O)O)cc3)cc2)c1NC(=O)O[C@H](C)c1ccccc1Cl
Found: 7

Lookup: Quote Population Pyknosed Nuclei (%) reported for COC[C@@H](c1ccc(C(F)(F)F)cc1)N1CCN(C2(C)CCN(C(=O)c3c(C)ncnc3C)CC2)C[C@@H]1C.O=C(O)/C=C\C(=O)O [VICRIVIROC MALEATE] please.
Found: 15
